- ASSAY TEXT: protein stability index of a GFP-peptide fusion (GPS, HEK-293T) (PSI 1-6); higher = more stable;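 note: 24-mer peptide tiles fused after GFP, lentivirally expressed, FACS-sorted into six equal bins by GFP/DsRed ratio, decoded by Illumina sequencing, PSI is the read-weighted mean bin number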
- MEASUREMENT CONTEXT: treatment: MLN4924 1 uM, 8 h; c terminus: a fixed tail appended
QUANTITY MEASURED: protein stability index
// keep it numeric: no unit symbol after the value

Here are 8 sequences together with their reported answers.
* HAQVVEELSNFKSQKVLGLNEDPL [ZBED1] | 4.44
* PRSCSSGPAGPYLLSKKGALQSRA [PLEKHN1] | 4.29
* IYVIGGYDGRSRLSSVECLDYTAD [KLHL12] | 2.63
* EQEHAAIQDKLFQVAKREREAATK [CHCHD6] | 5.48
* VSWFGSPTTSFLSISKLSPFSEFF [PWWP2B] | 2.35
* DNPLDRPLVGQDEFFLEQTKKKGV [NOP53] | 5.37
* KNRPAMNYDKLSRSIRQYYKKGII [SPDEF] | 2.42
* DLAGLGSETPKSQVGTLLFRSRSR [CDC25B] | 4.11

Qu. I would be grateful if you could share the reported protein stability index for HLCLRKADQKLVIIKQIPVEQMTK [NEK8] .
Ans. 2.75

Qu. Likewise for YSLLYLEHKGWYSWVLSMLYGFLL [CLPTM1] ?
Ans. 2.26

Qu. Entry to check: SHFVFVIEVKTKGGSKYLIYRRYR [NCF4]
Ans. 2.48

Qu. Lookup NYMVQTEDQYIFIHDALLEAVTCG [PTPRD]
Ans. 2.13

Qu. Lookup FPKKLAFAYLEDLHSEFDEQHGKK [SEC22B]
Ans. 3.26
